# Study system: recombinant homomeric hASIC1a channels (Homo sapiens, UniProt P78348)
# Construct: expressed in transfected cells; host or cells: Xenopus laevis oocytes (nuclear microinjection of expression vector such as pcDNA3)
# Protocol details: Two-electrode voltage clamp in Xenopus laevis oocytes expressing gated ion channels (Example 4)
# Assay type: cell-based
# Study conditions: Table 1; generated using oocytes as in Example 4
Recorded IC50 for the following molecules
Property: IC50

>  <Molecule>
Cc1cc(OC2CCN(C(C)c3ccccc3C#N)CC2)c2cccc(F)c2n1 (stereo not shown)

>  <Recorded value>
20.1 to 30 µM

$$$$
>  <Molecule>
Cc1cc(OC2CCCN(Cc3ccccc3)C2)c2ccccc2n1 (stereo not shown)

>  <Recorded value>
> 30 µM

$$$$
>  <Molecule>
Cc1cc(OC2CCN(Cc3ccccc3)CC2)c2cc(O)ccc2n1

>  <Recorded value>
0.1 to 10 µM

$$$$
>  <Molecule>
Cc1cc(OC2CCN(Cc3ccccc3)CC2)c2cccc(O)c2n1

>  <Recorded value>
> 30 µM

$$$$
>  <Molecule>
Cc1cc(OC2CCN(Cc3ccccc3F)C(C)C2)c2cccc(F)c2n1 (stereo not shown)

>  <Recorded value>
0.1 to 10 µM

$$$$
>  <Molecule>
Cc1cc(OC2CCN(Cc3ccccc3C#N)CC2)c2cccc(F)c2n1

>  <Recorded value>
0.1 to 10 µM

$$$$
>  <Molecule>
Cc1cc(OC2CCN(Cc3ccccc3C(=O)O)CC2)c2cc(O)ccc2n1

>  <Recorded value>
> 30 µM

$$$$
>  <Molecule>
Cc1cc(OC2CCN(Cc3cccc(O)c3)CC2)c2ccccc2n1

>  <Recorded value>
0.1 to 10 µM

$$$$
>  <Molecule>
Cc1cc(OC2CCN(Cc3ccccc3F)CC2)c2cccc(F)c2n1

>  <Recorded value>
0.1 to 10 µM

$$$$
>  <Molecule>
COc1cccc(CN2CCC(Oc3cc(C)nc4ccccc34)CC2)c1

>  <Recorded value>
0.1 to 10 µM

$$$$
>  <Molecule>
Cc1cc(OC2CCN(Cc3ccccc3C(=O)O)CC2)c2cccc(F)c2n1

>  <Recorded value>
0.1 to 10 µM

$$$$
>  <Molecule>
Cc1cc(OC2CCN(Cc3c(F)cccc3C(=O)O)CC2)c2cccc(F)c2n1

>  <Recorded value>
> 30 µM

$$$$
>  <Molecule>
Cc1cc(OC2CCN(Cc3ccccc3F)C(C)C2)c2ccccc2n1 (stereo not shown)

>  <Recorded value>
0.1 to 10 µM

$$$$
>  <Molecule>
Cc1nc(OC2CCN(Cc3ccccc3C#N)CC2)c2ccccc2n1

>  <Recorded value>
> 30 µM

$$$$
>  <Molecule>
Cc1nc(OC2CCN(Cc3ccccc3)CC2)c2ccccc2n1

>  <Recorded value>
10.1 to 20 µM

$$$$
>  <Molecule>
C=CCOC(=O)N1CCC(Oc2nc(C)nc3ccccc23)CC1

>  <Recorded value>
0.1 to 10 µM

$$$$
>  <Molecule>
Cc1cc(O[C@H]2CCCN(Cc3ccccc3)C2)c2ccccc2n1

>  <Recorded value>
> 30 µM

$$$$
>  <Molecule>
Cc1nc(OC2CCN(Cc3ccccc3F)CC2)c2ccccc2n1

>  <Recorded value>
> 30 µM

$$$$
>  <Molecule>
Cc1cc(OC2CCN(Cc3ccc(O)cc3)CC2)c2cccc(F)c2n1

>  <Recorded value>
0.1 to 10 µM

$$$$

====

Recorded pIC50 for the following compounds
# Study system: recombinant homomeric hASIC1a channels (Homo sapiens)
# Construct: expressed in transfected cells; host or cells: Xenopus laevis oocytes (nuclear microinjection of expression vector such as pcDNA3)
# Protocol details: Two-electrode voltage clamp in Xenopus laevis oocytes expressing gated ion channels (Example 4)
# Type: cell-based
# Study conditions: Table 2; generated using oocytes as in Example 4
pIC50: −log10 of the molar value.
Property: pIC50

>  <Compound>
Cc1cc(OC2CCN(Cc3c(F)cccc3C#N)CC2)c2cc(C#N)ccc2n1 [Compound 45]

>  <Study system>
recombinant homomeric hASIC1a channels (Homo sapiens)

>  <Property>
pIC50

>  <Recorded value>
< 4.52

$$$$
>  <Compound>
Cc1cc(OC2CCN(Cc3ccc(Br)cc3F)CC2)c2cccc(F)c2n1 [Compound 78]

>  <Study system>
recombinant homomeric hASIC1a channels (Homo sapiens)

>  <Property>
pIC50

>  <Recorded value>
4.52 to 4.70

$$$$
>  <Compound>
Cc1cc(OC2CCN(C(C)C)CC2)c2cccc(F)c2n1 [Compound 39]

>  <Study system>
recombinant homomeric hASIC1a channels (Homo sapiens)

>  <Property>
pIC50

>  <Recorded value>
< 4.52

$$$$
>  <Compound>
Cc1cc(OC2CCN(Cc3cccc(F)c3)CC2)c2ccccc2n1 [Compound 27]

>  <Study system>
recombinant homomeric hASIC1a channels (Homo sapiens)

>  <Property>
pIC50

>  <Recorded value>
5.00 to 7.00

$$$$
>  <Compound>
COc1ccc(F)c2c(OC3CCN(Cc4ccccc4)CC3)cc(C)nc12 [Compound 33]

>  <Study system>
recombinant homomeric hASIC1a channels (Homo sapiens)

>  <Property>
pIC50

>  <Recorded value>
< 4.52

$$$$
>  <Compound>
Cc1cc(OC2CCN(Cc3ccccc3)CC2)c2cc(-c3cccc(F)c3)ccc2n1 [Compound 55]

>  <Study system>
recombinant homomeric hASIC1a channels (Homo sapiens)

>  <Property>
pIC50

>  <Recorded value>
< 4.52

$$$$
>  <Compound>
Cc1cc(OC2CCCN(Cc3ccccc3)CC2)c2cccc(F)c2n1 (stereo not drawn) [Compound 75]

>  <Study system>
recombinant homomeric hASIC1a channels (Homo sapiens)

>  <Property>
pIC50

>  <Recorded value>
< 4.52

$$$$
>  <Compound>
COc1ccc(F)c2c(OC3CCN(Cc4ccccc4-c4nnn[nH]4)CC3)cc(C)nc12 [Compound 95]

>  <Study system>
recombinant homomeric hASIC1a channels (Homo sapiens)

>  <Property>
pIC50

>  <Recorded value>
5.00 to 7.00

$$$$
>  <Compound>
COc1cccc2c(OC3CCN(Cc4ccccc4-c4nnn[nH]4)CC3)cc(C)nc12 [Compound 93]

>  <Study system>
recombinant homomeric hASIC1a channels (Homo sapiens)

>  <Property>
pIC50

>  <Recorded value>
4.52 to 4.70

$$$$
>  <Compound>
Cc1cc(OC2CCN(Cc3ccc4c(c3)OCO4)CC2)c2ccccc2n1 [Compound 86]

>  <Study system>
recombinant homomeric hASIC1a channels (Homo sapiens)

>  <Property>
pIC50

>  <Recorded value>
4.70 to 5.00

$$$$
>  <Compound>
COc1ccc2cc(CN3CCC(Oc4cc(C)nc5c(F)cccc45)CC3)ccc2c1 [Compound 87]

>  <Study system>
recombinant homomeric hASIC1a channels (Homo sapiens)

>  <Property>
pIC50

>  <Recorded value>
4.70 to 5.00

$$$$
>  <Compound>
Cc1cc(OC2CCN(Cc3ccccc3)CC2)c2cc(C#N)ccc2n1 [Compound 46]

>  <Study system>
recombinant homomeric hASIC1a channels (Homo sapiens)

>  <Property>
pIC50

>  <Recorded value>
4.52 to 4.70

$$$$
>  <Compound>
COc1ccc(CN2CCC(Oc3cc(C)nc4c(F)cccc34)CC2)cc1 [Compound 41]

>  <Study system>
recombinant homomeric hASIC1a channels (Homo sapiens)

>  <Property>
pIC50

>  <Recorded value>
5.00 to 7.00

$$$$
>  <Compound>
Cc1cc(OC2CC(C)N(Cc3ccccc3F)C(C)C2)c2ccccc2n1 (stereo not drawn) [Compound 67]

>  <Study system>
recombinant homomeric hASIC1a channels (Homo sapiens)

>  <Property>
pIC50

>  <Recorded value>
< 4.52

$$$$
>  <Compound>
Cc1cc(OC2CCN(Cc3cccc(C(=O)O)c3)CC2)c2cc(O)ccc2n1 [Compound 92]

>  <Study system>
recombinant homomeric hASIC1a channels (Homo sapiens)

>  <Property>
pIC50

>  <Recorded value>
< 4.52

$$$$
>  <Compound>
Cc1cc(OC2CCN(Cc3ccccc3C(=O)O)CC2)c2cc(F)ccc2n1 [Compound 31]

>  <Study system>
recombinant homomeric hASIC1a channels (Homo sapiens)

>  <Property>
pIC50

>  <Recorded value>
4.70 to 5.00

$$$$
>  <Compound>
COc1ccc(CC2CCC(Oc3cc(C)nc4c(F)cccc34)CC2)cc1 (stereo not drawn) [Compound 69]

>  <Study system>
recombinant homomeric hASIC1a channels (Homo sapiens)

>  <Property>
pIC50

>  <Recorded value>
< 4.52

$$$$
>  <Compound>
COc1ncccc1CN1CCC(Oc2cc(C)nc3c(F)cccc23)CC1 [Compound 71]

>  <Study system>
recombinant homomeric hASIC1a channels (Homo sapiens)

>  <Property>
pIC50

>  <Recorded value>
5.00 to 7.00

$$$$

====

Recorded IC50 for the following molecules
# Study system: recombinant homomeric hASIC1a channels (Homo sapiens, UniProt P78348)
# Construct: expressed in transfected cells; host or cells: Xenopus laevis oocytes (nuclear microinjection of expression vector such as pcDNA3)
# Sequence (P78348 1-528): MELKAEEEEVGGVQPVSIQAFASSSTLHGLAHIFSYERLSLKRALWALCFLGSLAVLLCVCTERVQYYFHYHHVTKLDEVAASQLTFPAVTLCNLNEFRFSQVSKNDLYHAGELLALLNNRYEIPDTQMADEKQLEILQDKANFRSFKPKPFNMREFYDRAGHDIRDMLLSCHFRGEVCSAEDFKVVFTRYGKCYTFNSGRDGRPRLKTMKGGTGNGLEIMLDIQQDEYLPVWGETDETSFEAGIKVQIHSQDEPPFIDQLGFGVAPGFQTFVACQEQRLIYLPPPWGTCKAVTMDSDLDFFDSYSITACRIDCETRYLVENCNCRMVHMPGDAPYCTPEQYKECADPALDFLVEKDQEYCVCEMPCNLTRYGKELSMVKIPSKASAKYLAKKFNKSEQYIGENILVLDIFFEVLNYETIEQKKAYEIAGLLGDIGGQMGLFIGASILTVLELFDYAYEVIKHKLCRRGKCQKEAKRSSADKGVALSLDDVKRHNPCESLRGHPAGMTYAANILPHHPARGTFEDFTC
# Protocol details: Two-electrode voltage clamp in Xenopus laevis oocytes expressing gated ion channels (Example 4)
# Assay type: cell-based
# Study conditions: Table 2; generated using oocytes as in Example 4

>  <Molecule>
Cc1cc(OC2CCN(C(C)c3ccccc3)CC2)c2ccccc2n1 (stereo not drawn)

>  <IC50>
0.1 to 10 µM

$$$$
>  <Molecule>
Cc1cc(OC2CCN(Cc3cccc(OCc4ccccc4)c3)CC2)c2ccccc2n1

>  <IC50>
> 30 µM

$$$$
>  <Molecule>
Cc1cc(OC2CCN(Cc3ccccc3C#N)CC2)c2cc(Br)ccc2n1

>  <IC50>
> 30 µM

$$$$
>  <Molecule>
COc1cc(F)cc2c(OC3CCN(Cc4ccccc4-c4nnn[nH]4)CC3)cc(C)nc12

>  <IC50>
0.1 to 10 µM

$$$$
>  <Molecule>
c1ccc(CN2CCC(Oc3ccnc4ccccc34)CC2)cc1

>  <IC50>
0.1 to 10 µM

$$$$
>  <Molecule>
Cc1cc(OC2CCN(Cc3cccnc3CO)CC2)c2cccc(F)c2n1

>  <IC50>
> 30 µM

$$$$
>  <Molecule>
COc1cccc2c(OC3CCN(Cc4ccccc4C#N)CC3)cc(C)nc12

>  <IC50>
> 30 µM

$$$$
>  <Molecule>
COc1cc(F)cc2c(OC3CCN(Cc4ccccc4)CC3)cc(C)nc12

>  <IC50>
0.1 to 10 µM

$$$$
>  <Molecule>
Cc1cc(OC2CCN(Cc3ccccc3-c3nnn[nH]3)CC2)c2cccc(F)c2n1

>  <IC50>
0.1 to 10 µM

$$$$
>  <Molecule>
Cc1cc(OC2CCN(Cc3ccccc3C(=O)NCCCC(=O)OCc3ccccc3)CC2)c2cccc(F)c2n1

>  <IC50>
0.1 to 10 µM

$$$$
>  <Molecule>
Cc1cc(OC2CCN(Cc3ccc(O)cc3F)CC2)c2cccc(F)c2n1

>  <IC50>
0.1 to 10 µM

$$$$
>  <Molecule>
COc1cccc(CN2CCC(Oc3cc(C)nc4c(F)cccc34)CC2)c1

>  <IC50>
0.1 to 10 µM

$$$$
>  <Molecule>
COc1cc(OC)c(CN2CCC(Oc3cc(C)nc4c(F)cccc34)CC2)c(C(=O)O)c1

>  <IC50>
> 30 µM

$$$$
>  <Molecule>
Cc1cc(OC2CCN(Cc3ccc(O)c(O)c3)CC2)c2ccccc2n1

>  <IC50>
0.1 to 10 µM

$$$$
>  <Molecule>
Cc1cc(OC2CCN(Cc3c(F)cccc3F)CC2)c2cccc(F)c2n1

>  <IC50>
10.1 to 20 µM

$$$$
>  <Molecule>
Cc1cc(OC2CCN(Cc3ccccc3)C3CCCCC23)c2cccc(F)c2n1 (stereo not drawn)

>  <IC50>
0.1 to 10 µM

$$$$
>  <Molecule>
Cc1cc(OC2CCN(Cc3ccccc3-c3nnn[nH]3)CC2)c2cc(F)ccc2n1

>  <IC50>
0.1 to 10 µM

$$$$
>  <Molecule>
c1ccc(CN2CCC(Oc3c4ccccc4nc4ccccc34)CC2)cc1

>  <IC50>
> 30 µM

$$$$
